These data points were gathered from paper PMC8319936.

Assay: PAMPA permeability
Format: in vitro ADME
assay metric: Papp (×10⁻⁶ cm/s)
Please give a number only; it is taken to be in ×10⁻⁶ cm/s.

Quick one: Papp of Cc1noc(-c2cc3cc(-c4nc(C(=O)NCc5ccncc5)[nH]c4C)ccc3[nH]2)n1 [Compound 17] ? 29

====

Assay: Caco-2 permeability
Type: in vitro ADME
Conditions: human, Caco-2, pH 7.4
assay metric: Papp B→A at 150 min, 50 mM (×10⁻⁶ cm/s)
Output spec: scalar in ×10⁻⁶ cm/s, unitless text.

Any idea what Papp B→A at 150 min, 50 mM was measured for Cc1noc(-c2cc3cc(-c4nc(C(=O)NCc5ccncc5)[nH]c4C)ccc3[nH]2)n1 ? 9
